Where do these numbers come from? They come from patent US20230391772A1.

EC50 for assorted molecules
System: NCI-H358 human non-small cell lung cancer
TEST SUMMARY: NCI-H358 CCK-8 proliferation assay
Type: cell-based
CONDITION PARAMETERS: NCI-H358 cells, 72 hr
PROPERTY: EC50

smiles_notation=CCC(=O)N1CCN(c2nc(OC[C@@H]3CCN(C(=O)C4CCN(Cc5ccc(-n6c(O)nnc6-c6cc(C(C)C)c(O)cc6O)cc5)CC4)C3)nc3c2CCN(c2cccc4cccc(Cl)c24)C3)C[C@@H]1CC#N experimental_result="100 to 1000 nM"
smiles_notation=C=CC(=O)N1CCN(c2nc(OC[C@@H]3CCN(C(=O)C4CCN(Cc5ccc(-n6c(O)nnc6-c6cc(C(C)C)c(O)cc6O)cc5)CC4)C3)nc3c2CCN(c2cccc4cccc(Cl)c24)C3)C[C@@H]1CC#N experimental_result="100 to 1000 nM"

###

TARGET OF ASSAY: KRAS(G12C) (Homo sapiens, UniProt P01116, G12C)
Sequence (P01116 1-188 isoform P01116-2 G12C): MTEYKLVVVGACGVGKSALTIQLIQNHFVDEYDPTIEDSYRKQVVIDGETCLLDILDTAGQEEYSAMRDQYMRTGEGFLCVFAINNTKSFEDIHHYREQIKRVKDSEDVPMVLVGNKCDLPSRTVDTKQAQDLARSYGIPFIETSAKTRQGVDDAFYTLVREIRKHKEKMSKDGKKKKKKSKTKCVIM
TEST SUMMARY: KRAS(G12C) Western blot protein degradation assay in MIA PaCa-2 cells;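 further: cells are MIA PaCa-2 not LU65A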
Type: cell-based
Set-up: host or cells: LU65A
CONDITION PARAMETERS: 1250 nM, 48 hr
inhibition at 1.25 µM for assorted molecules
PROPERTY: inhibition at 1.25 µM

smiles_notation=C=CC(=O)N1CCN(c2nc(OC[C@@H]3CCN(C(=O)c4cc(C(C)C)c(O)cc4OC)C3)nc3c2CCN(c2cccc4cccc(Cl)c24)C3)C[C@@H]1CC#N property="inhibition at 1.25 µM" experimental_result="< 33%"
smiles_notation=C=CC(=O)N1CCN(c2nc(OC[C@@H]3CCN(C(=O)C4CCN(Cc5ccc(-n6c(C(=O)NCC(F)(F)F)nnc6-c6cc(C(C)C)c(O)cc6O)cc5)CC4)C3)nc3c2CCN(c2cccc4cccc(Cl)c24)C3)C[C@@H]1CC#N property="inhibition at 1.25 µM" experimental_result="33 to 66%"
smiles_notation=C=CC(=O)N1CCN(c2nc(OC[C@@H]3CCN(C(=O)c4cc(C(C)C)c(OC)cc4O)C3)nc3c2CCN(c2cccc4cccc(Cl)c24)C3)C[C@@H]1CC#N property="inhibition at 1.25 µM" experimental_result="< 33%"
smiles_notation=C=CC(=O)N1CCN(c2nc(NCCC(=O)N3CCC(Cc4ccc(CN(C)Cc5ccc(-n6c(C(=O)NCC(F)(F)F)nnc6-c6cc(C(C)C)c(O)cc6O)cc5)cc4)CC3)nc3c2CCN(c2cc(O)cc4ccccc24)C3)CC1 property="inhibition at 1.25 µM" experimental_result="< 33%"
smiles_notation=C=CC(=O)N1CCN(c2nc(OC[C@@H]3CCN(C(=O)c4cc(C(C)C)c(O)cc4O)C3)nc3c2CCN(c2cccc4cccc(Cl)c24)C3)C[C@@H]1CC#N property="inhibition at 1.25 µM" experimental_result="< 33%"

###

TARGET OF ASSAY: KRAS(G12C) (Homo sapiens, UniProt P01116, G12C)
TEST SUMMARY: KRAS(G12C)/SOS1 homogeneous time-resolved fluorescence (HTRF) assay
CONDITION PARAMETERS: absence of GTP, 4° C. for 3 hr, read-out: KRAS (G12C) binding
IC50 for assorted molecules
PROPERTY: IC50

smiles_notation=C=CC(=O)N1CCN(c2nc(OC[C@@H]3C[C@@H](NC(=O)C4CCN(Cc5ccc(-n6c(O)nnc6-c6cc(C(C)C)c(O)cc6O)cc5)CC4)CN3C)nc3c2CCN(c2cccc4cccc(Cl)c24)C3)C[C@@H]1CC#N experimental_result="100 to 1000 nM"
smiles_notation=C=CC(=O)N1CCN(c2nc(OC[C@@H]3CCCN3C(=O)C3CCN(Cc4ccc(-n5c(O)nnc5-c5cc(C(C)C)c(O)cc5O)cc4)CC3)nc3c2CCN(c2cccc4cccc(C)c24)C3)C[C@@H]1CC#N experimental_result="> 1000 nM"

###

EC50 for assorted compounds
System: NCI-H358 human non-small cell lung cancer
TEST SUMMARY: NCI-H358 CCK-8 proliferation assay
Assay type: cell-based
CONDITION PARAMETERS: NCI-H358 cells, 72 hr
PROPERTY: EC50

smiles_notation=CC(=O)N1CCN(c2nc(NCCC(=O)N3CCC(Cc4ccc(CN(C)Cc5ccc(-n6c(C(=O)NCC(F)(F)F)nnc6-c6cc(C(C)C)c(O)cc6O)cc5)cc4)CC3)nc3c2CCN(c2cccc4ccccc24)C3)C[C@H]1CC#N experimental_result="100 to 1000 nM"
smiles_notation=C=CC(=O)N1CCN(c2nc(NCCC(=O)NCC3CCN(C(=O)C4CCN(Cc5ccc(-n6c(O)nnc6-c6cc(CC)c(O)cc6O)cc5)CC4)CC3)nc3c2CCN(c2cccc4cccc(Cl)c24)C3)C[C@H]1CC#N experimental_result="> 1000 nM"

###

TARGET OF ASSAY: KRAS(G12C) (Homo sapiens, UniProt P01116, G12C)
TEST SUMMARY: KRAS(G12C) Western blot protein degradation assay in MIA PaCa-2 cells;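 further: cells are MIA PaCa-2 not LU65A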
Type: cell-based
Parameters: host or cells: LU65A
CONDITION PARAMETERS: 1250 nM, 48 hr
inhibition at 1.25 µM for assorted compounds
PROPERTY: inhibition at 1.25 µM

compound="C=CC(=O)N1CCN(c2nc(OC[C@@H]3CCN(C(=O)c4cc(CC)c(O)cc4O)C3)nc3c2CCN(c2cccc4cccc(Cl)c24)C3)C[C@@H]1CC#N [Compound 158]" experimental_result="< 33%"
compound="C=CC(=O)N1CCN(c2nc(OC[C@@H]3CCN(C(=O)C4CCN(Cc5ccc(-n6c(O)nnc6-c6cc(C(C)C)c(O)cc6O)cc5)CC4)C3)nc3c2CCN(c2cccc4cccc(Cl)c24)C3)C[C@@H]1CC#N [Compound 148]" experimental_result="< 33%"
compound="C=CC(=O)N1CCN(c2nc(OC[C@@H]3CCN(C(=O)C4CCN(Cc5ccc(-n6c(C(N)=O)nnc6-c6cc(C(C)C)c(O)cc6O)cc5)CC4)C3)nc3c2CCN(c2cccc4cccc(Cl)c24)C3)C[C@@H]1CC#N [Compound 183]" experimental_result="33 to 66%"
compound="C=CC(=O)N1CCN(c2nc(OC[C@@H]3CCCN3C(=O)C3CCN(Cc4ccc(-n5c(O)nnc5-c5cc(C(C)C)c(O)cc5O)cc4)CC3)nc3c2CCN(c2cccc4cccc(Cl)c24)C3)C[C@@H]1CC#N [Compound 139]" experimental_result="< 33%"
compound="C=C(F)C(=O)N1CCN(c2nc(OC[C@@H]3CCN(C(=O)C4CCN(Cc5ccc(-n6c(C(=O)NCC(F)(F)F)nnc6-c6cc(C(C)C)c(O)cc6O)cc5)CC4)C3)nc3c2CCN(c2cccc4cccc(Cl)c24)C3)C[C@@H]1CC#N [Compound 168]" experimental_result="33 to 66%"

###

IC50 for assorted compounds
TARGET OF ASSAY: HSP90a protein (Homo sapiens, UniProt P07900)
Construct: purchased BPS Bioscience 50298
TEST SUMMARY: HSP90α-binding fluorescent polarization (FP) assay, BODIPY-labeled RNK04010 probe
CONDITION PARAMETERS: FP competition with RNK04010 (BODIPY-labeled), 5 nM, 300 min at 25° C.
PROPERTY: IC50

compound="C=CC(=O)N1CCN(c2nc(NCCC(=O)NCCc3ccc(CN4CCC(Cc5ccc(-n6c(C(=O)NCC(F)(F)F)nnc6-c6cc(C(C)C)c(O)cc6O)cc5)CC4)cc3)nc3c2CCN(c2cc(O)cc4ccccc24)C3)CC1 [Compound 24, trifluoroacetic acid]" experimental_result="100 to 1000 nM"
compound="C=CC(=O)N1CCN(c2nc(OC[C@@H]3C[C@@H](NC(=O)c4ccc(-n5c(O)nnc5-c5cc(C(C)C)c(O)cc5O)cc4)CN3C)nc3c2CCN(c2cccc4cccc(Cl)c24)C3)C[C@@H]1CC#N [Compound 196, trifluoroacetic acid]" experimental_result="< 100 nM"
compound="C=CC(=O)N1CCN(c2nc(OC[C@@H]3CC[C@H](C(=O)N4CCN(C(=O)C5CCN(Cc6ccc(-n7c(C(=O)NCC(F)(F)F)nnc7-c7cc(C)c(O)cc7O)cc6)CC5)CC4)N3C)nc3c2CCN(c2cccc4cccc(Cl)c24)C3)C[C@@H]1CC#N [Compound 332]" experimental_result="< 100 nM"
compound="C=CC(=O)N1CCN(c2nc(OC[C@@H]3C[C@@H](NC(=O)C4CCN(Cc5ccc(-n6c(C(=O)NCCN7CCN(C)CC7)nnc6-c6cc(C(C)C)c(O)cc6O)cc5)CC4)CN3C)nc3c2CCN(c2cccc4cccc(Cl)c24)C3)C[C@@H]1CC#N [Compound 201]" experimental_result="< 100 nM"
compound="C=CC(=O)N1CCN(c2nc(OC[C@@H]3CC[C@H](C(=O)N4CCN(C(=O)C5CCN(Cc6ccc(-n7c(O)nnc7-c7cc(C(C)C)c(O)cc7O)cc6)CC5)CC4)N3C)nc3c2CCN(c2cccc4cccc(Cl)c24)C3)C[C@@H]1CC#N [Compound 341]" experimental_result="< 100 nM"
compound="C=CC(=O)N1CCN(c2nc(NCCC(=O)N3CCN(Cc4ccc(-n5c(O)nnc5-c5cc(C(C)C)c(O)cc5O)cc4)CC3)nc3c2CCN(c2cccc4cccc(Cl)c24)C3)C[C@H]1CC#N [Compound 100, trifluoroacetic acid]" experimental_result="100 to 1000 nM"
compound="C=CC(=O)N1CCN(c2nc(NCCC(=O)NCc3ccc(-n4c(O)nnc4-c4cc(C(C)C)c(O)cc4O)cc3)nc3c2CCN(c2cc(O)cc4ccccc24)C3)CC1 [Compound 7, trifluoroacetic acid]" experimental_result="100 to 1000 nM"
compound="C=C(F)C(=O)N1CCN(c2nc(OC[C@@H]3CCN(C(=O)c4ccc(Nc5cc(-n6nc(C(F)(F)F)c7c6CC(C)(C)CC7=O)ccc5C(N)=O)cc4)C3)nc3c2CCN(c2cccc4cccc(Cl)c24)C3)C[C@@H]1CC#N [Compound 163]" experimental_result="> 1000 nM"
